# Tested on: MDA-MB-175-VII
# test_protocol: cells
# condition_details: Homo sapiens
# Description: Cytotoxicity against human MDA-MB-175-VII cells assessed as reduction in cell growth
readout_name: IC50 (nM)
Kindly answer with a numeric value in nM, unit omitted.

Query string: Fill in: IC50 of Cc1c2ccccc2c(CSC(=N)N)c2ccccc12 is ___
Result string: 1500

* * *

# Tested on: MDA-MB-435
# test_protocol: Antiproliferative activity against human MDA-MB-435 cells assessed as reduction in cell growth
readout_name: pIC50
To interpret pIC50, take it as minus log10 of a concentration measured in moles per litre.

Query string: Provide the documented pIC50 with MDA-MB-435 as the system for Cc1c(Cl)ccc2c(/C=C3\NC(=O)N(C(C(=O)NC(CO)CO)c4ccc(F)c(F)c4)C3=O)c[nH]c12 (stereo unspecified)
Result string: 4.60
